test.system: CDK9/CycT1 (Homo sapiens, UniProt P50750)
Sequence (P50750 whole entry): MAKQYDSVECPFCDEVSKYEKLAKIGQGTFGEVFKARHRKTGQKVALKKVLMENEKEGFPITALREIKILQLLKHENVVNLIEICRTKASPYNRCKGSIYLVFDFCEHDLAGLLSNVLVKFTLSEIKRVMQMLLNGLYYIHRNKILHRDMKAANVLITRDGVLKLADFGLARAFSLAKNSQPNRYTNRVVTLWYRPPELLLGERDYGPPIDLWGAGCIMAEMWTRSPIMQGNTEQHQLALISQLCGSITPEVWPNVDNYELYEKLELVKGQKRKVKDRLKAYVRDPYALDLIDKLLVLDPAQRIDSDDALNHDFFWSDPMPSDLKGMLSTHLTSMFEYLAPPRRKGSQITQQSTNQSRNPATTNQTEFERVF
Sequence (O60563 whole entry partner): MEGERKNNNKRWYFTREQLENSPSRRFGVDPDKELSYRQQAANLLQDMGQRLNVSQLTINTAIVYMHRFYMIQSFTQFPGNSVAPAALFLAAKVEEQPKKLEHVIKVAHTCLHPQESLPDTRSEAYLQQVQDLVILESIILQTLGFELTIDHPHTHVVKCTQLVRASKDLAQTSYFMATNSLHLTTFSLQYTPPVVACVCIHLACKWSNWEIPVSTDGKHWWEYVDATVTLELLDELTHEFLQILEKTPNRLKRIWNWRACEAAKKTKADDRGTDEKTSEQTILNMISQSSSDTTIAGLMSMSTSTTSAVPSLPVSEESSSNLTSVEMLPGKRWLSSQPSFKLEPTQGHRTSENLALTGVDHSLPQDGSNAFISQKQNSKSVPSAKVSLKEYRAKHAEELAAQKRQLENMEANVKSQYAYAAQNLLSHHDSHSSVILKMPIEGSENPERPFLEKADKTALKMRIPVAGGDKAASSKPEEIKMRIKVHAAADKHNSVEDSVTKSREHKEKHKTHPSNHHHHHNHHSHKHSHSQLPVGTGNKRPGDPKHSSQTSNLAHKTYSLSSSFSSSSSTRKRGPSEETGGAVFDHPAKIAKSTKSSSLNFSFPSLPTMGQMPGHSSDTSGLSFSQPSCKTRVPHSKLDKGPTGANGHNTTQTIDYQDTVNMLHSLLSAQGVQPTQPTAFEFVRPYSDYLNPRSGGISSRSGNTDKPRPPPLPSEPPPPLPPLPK
protocol.description: Off-chip mobility shift assay (MSA) on CDK9/CycT1
Type: biochemical
Design: Full-length human CDK9 [1-372(end) amino acids of; host or cells: baculovirus expression system
measurement.conditions: 4-point concentration (0.0016, 0.008, 0.04, 0.2 uM), ATP 10 μM, reaction time 5 hours, read-out: CDK9/CycT1/nM (inhibitory activity)
reported.metric: IC50 (nM)
Give just the number in nM; leave the unit off.

| compound.structure.string | IC50, nM |
| --- | --- |
| C#Cc1cc2cnc(N[C@H]3CC[C@H](O)CC3)nc2c(NC(C)C)n1 | 7 |

Problem: Request the reported IC50 associated with CC(C)Nc1nc([C@@H](C)O)cc2cnc(NC[C@H]3CC[C@H](NS(C)(=O)=O)CC3)nc12
Result: 61

Problem: Also C=Cc1cc2cnc(NC(=O)[C@H]3CCC[C@@H](NC(C)=O)C3)cc2c(NC(C)C)n1 , if possible.
Result: 29

Problem: Also CC(C)Nc1nc([C@@H](C)O)cc2cnc(N[C@H]3CC[C@H](O)CC3)nc12 , if possible.
Result: 36

Problem: Also CC(C)Nc1nc([C@@H](C)O)cc2cnc(NCCCO)nc12 , if possible.
Result: 64

---

test.system: CDK2/CycA2 (Homo sapiens, UniProt P24941)
protocol.description: ADP-Glo kinase assay on CDK enzymatic activity, CDK2/CycA2
Type: biochemical
measurement.conditions: 10 concentrations from 10 μM, 4-fold, 60 min room temperature
List of IC50 values.
# do not omit the unit; it follows the number

Use these answered entries as a reference point.
| molecule | test.system | IC50 |
| --- | --- | --- |
| CCCNc1nc(C#N)cc2cnc(N[C@H]3C[C@H](N)C3)nc12 | CDK2/CycA2 (Homo sapiens, UniProt P24941) | 32 nM |
| N#Cc1cc2cnc(N[C@H]3CC[C@H](N)C3)cc2c(NC2CCCC2)n1 | CDK2/CycA2 (Homo sapiens, UniProt P24941) | 57 nM |
| CC(=O)N[C@@H]1CCC[C@H](C(=O)Nc2cc3c(N4CC[C@@H](O)C4)nc(C#N)cc3cn2)C1 | CDK2/CycA2 (Homo sapiens, UniProt P24941) | 2370 nM |
| CC(C)Nc1nc(C#N)cc2cnc(Nc3cc(CS(C)(=N)=O)ccn3)cc12 (centres unmarked) | CDK2/CycA2 (Homo sapiens, UniProt P24941) | 34 nM |

Problem: Request the reported IC50 associated with CC(=O)N[C@@H]1CCC[C@H](C(=O)Nc2cc3c(N4CC[C@@H](N)C4)nc(C#N)cc3cn2)C1
Result: 2150 nM

Problem: Also CC(C)Nc1nc(C#N)cc2cnc(N[C@H]3C[C@H](O)C3)cc12 , if possible.
Result: 10 nM

Problem: Also CC(C)Oc1nc(C#N)cc2cnc(N[C@H]3CC[C@H](N)C3)cc12 , if possible.
Result: 73 nM

Problem: Also CC(=O)N[C@H]1CCC[C@H](C(=O)Nc2cc3c(NC(C)C)nc(C#N)cc3cn2)C1 , if possible.
Result: 521 nM

---

test.system: CDK9/CycT1 (Homo sapiens, UniProt P50750)
protocol.description: ADP-Glo kinase assay on CDK enzymatic activity, CDK9/CycT1
Format: biochemical
measurement.conditions: 10 concentrations from 10 μM, 4-fold, 60 min room temperature
reported.metric: IC50 (nM)
Give just the number in nM; leave the unit off.

| compound | test.system | reported.metric | numeric.readout |
| --- | --- | --- | --- |
| CN(C)[C@H]1CC[C@H](Nc2ncc3cc(C#N)nc(N[C@@H]4CCOC4)c3n2)CC1 [Compound C40] | CDK9/CycT1 (Homo sapiens, UniProt P50750) | IC50 | 5 |
| CC(=O)N[C@@H]1CCC[C@H](C(=O)Nc2cc3c(NC4(C)CC4)nc(C#N)cc3cn2)C1 [Compound 17] | CDK9/CycT1 (Homo sapiens, UniProt P50750) | IC50 | 4 |
| CC(C)Nc1nc(C#N)cc2cnc(N[C@H]3CCCNCC3)nc12 [Compound 131] | CDK9/CycT1 (Homo sapiens, UniProt P50750) | IC50 | 6 |

Then this compound:
Problem: Request the reported IC50 associated with CC(C)Oc1nc(C#N)cc2cnc(N[C@H]3C[C@H](N)C3)cc12 [Compound 207]
Result: 1

---

test.system: CDK3/CycE1 (Homo sapiens)
protocol.description: ADP-Glo kinase assay on CDK enzymatic activity, CDK3/CycE1
Type: biochemical
measurement.conditions: 10 concentrations from 10 μM, 4-fold, 60 min room temperature
List of IC50 values.
Give just the number in nM; leave the unit off.

| compound.structure.string | quantity.unit | IC50 |
| --- | --- | --- |
| C#Cc1cc2cnc(NC(=O)[C@H]3CCC[C@@H](NC(C)=O)C3)cc2c(NC(C)C)n1 | nM | 41 |

Problem: Request the reported IC50 associated with CC(C)Nc1nc(C#N)cc2cnc(NC3CCNCC3)nc12
Result: 413

Problem: Also CC(C)(C)Nc1nc(C#N)cc2cnc(N[C@H]3CC[C@H](N)C3)cc12 , if possible.
Result: 137

Problem: Also C[C@@H](Nc1nc(C#N)cc2cnc(N[C@H]3CCCNC3)cc12)c1ccccc1 , if possible.
Result: 215

---

test.system: CDK9/CycT1 (Homo sapiens, UniProt P50750)
protocol.description: ADP-Glo kinase assay on CDK enzymatic activity, CDK9/CycT1
Format: biochemical
measurement.conditions: 10 concentrations from 10 μM, 4-fold, 60 min room temperature
IC50 vs 2 nM: less than gives 1.0; not less than gives 0.0.

| compound.structure.string | label |
| --- | --- |
| N#Cc1cc2cnc(N[C@H]3CC[C@H](N)C3)cc2c(N[C@@H]2CCOC2)n1 | 0.0 |
| CC(C)Nc1nc(C#N)cc2cnc(N[C@@H]3CN[C@H](CO)C3)cc12 | 0.0 |
| CCNc1nc(C#N)cc2cnc(N[C@H]3C[C@](C)(N)C3)cc12 | 0.0 |

Problem: Check if IC50 falls below 2 nM for CC(C)Nc1nc(C#N)cc2cnc(NC3CCN(CC(=O)N(C)C)CC3)nc12 .
Result: 0.0

Problem: Also CC(C)(C)Nc1nc(C#N)cc2cnc(NC(=O)[C@@H]3CCCNC3)cc12 , if possible.
Result: 0.0

Problem: Also CCNc1nc(C#N)cc2cnc(N[C@H]3C[C@H](N)C3)cc12 , if possible.
Result: 1.0

Problem: Also CC(=O)N[C@@H]1CCC[C@H](C(=O)Nc2cc3c(N4CC[C@@H](O)C4)nc(C#N)cc3cn2)C1 , if possible.
Result: 0.0

Problem: Also CC(C)(C)Nc1nc(C#N)cc2cnc(N[C@H]3C[C@H](O)C3)nc12 , if possible.
Result: 1.0

Problem: Also CCN(CC)c1nc(C#N)cc2cnc(N[C@H]3CCCNC3)cc12 , if possible.
Result: 0.0

Problem: Also C[C@@H](Nc1nc(C#N)cc2cnc(N[C@H]3CCCNC3)cc12)c1ccccc1 , if possible.
Result: 0.0

---

test.system: CDK9/CycT1 (Homo sapiens, UniProt P50750)
protocol.description: ADP-Glo kinase assay on CDK enzymatic activity, CDK9/CycT1
Format: biochemical
measurement.conditions: 10 concentrations from 10 μM, 4-fold, 60 min room temperature
reported.metric: IC50 (nM)
Give just the number in nM; leave the unit off.

Use these answered entries as a reference point.
| molecule | IC50, nM |
| --- | --- |
| CC(C)(C)Nc1nc(C#N)cc2cnc(N[C@H]3C[C@](C)(N)C3)nc12 | 1 |
| CC(C)Nc1nc(C#N)cc2cnc(NC3CCCCC3O)cc12 (centres unmarked) | 12 |
| FC(F)c1cc2cnc(N[C@H]3CCCNC3)cc2c(O[C@@H]2CCOC2)n1 | 4 |
| CC(=O)N1CCN([C@H]2C[C@H](Nc3ncc4cc(C#N)nc(NC(C)C)c4n3)C2)CC1 | 4 |
| CC(=O)N[C@H]1CC[C@H](Nc2ncc3cc(C#N)nc(NC(C)C)c3n2)C1 | 3 |

Problem: Request the reported IC50 associated with CC(C)(C)Nc1nc(C(F)F)cc2cnc(N[C@H]3CCCNC3)nc12
Result: 2

Problem: Also CC(C)Nc1nc(C(F)(F)F)cc2cnc(N[C@H]3CCCNC3)nc12 , if possible.
Result: 2

Problem: Also CC(C)Nc1nc(C#N)cc2cnc(N[C@H]3CC[C@H](C)NC3)cc12 , if possible.
Result: 3

---

test.system: CDK3/CycE1 (Homo sapiens, UniProt Q00526)
Sequence (Q00526 whole entry, species assumed): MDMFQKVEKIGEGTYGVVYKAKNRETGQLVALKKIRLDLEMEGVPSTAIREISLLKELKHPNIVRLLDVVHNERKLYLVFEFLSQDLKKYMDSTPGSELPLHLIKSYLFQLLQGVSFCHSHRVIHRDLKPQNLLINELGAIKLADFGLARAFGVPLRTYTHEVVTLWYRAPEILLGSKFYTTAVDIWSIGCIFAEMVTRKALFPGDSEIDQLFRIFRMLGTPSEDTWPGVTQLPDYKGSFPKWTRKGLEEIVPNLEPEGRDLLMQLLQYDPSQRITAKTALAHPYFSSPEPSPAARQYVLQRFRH
Sequence (P24864 whole entry partner, species assumed): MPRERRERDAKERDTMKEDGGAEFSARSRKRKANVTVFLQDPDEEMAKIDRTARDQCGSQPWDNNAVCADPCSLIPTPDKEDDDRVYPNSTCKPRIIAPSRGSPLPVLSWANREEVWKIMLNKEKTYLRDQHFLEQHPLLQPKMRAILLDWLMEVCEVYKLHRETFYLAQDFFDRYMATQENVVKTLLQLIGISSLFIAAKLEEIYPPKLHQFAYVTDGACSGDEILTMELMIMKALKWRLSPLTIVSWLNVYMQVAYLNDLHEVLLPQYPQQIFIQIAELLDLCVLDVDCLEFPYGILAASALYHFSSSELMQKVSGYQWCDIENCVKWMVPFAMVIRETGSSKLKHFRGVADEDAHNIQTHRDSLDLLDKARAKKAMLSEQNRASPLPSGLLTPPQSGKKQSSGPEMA
protocol.description: ADP-Glo kinase assay on CDK enzymatic activity, CDK3/CycE1
Type: biochemical
measurement.conditions: 10 concentrations from 10 μM, 4-fold, 60 min room temperature
# class assignment by measured IC50: group 1 (below 100 nM), group 2 (100 nM to below 300 nM), group 3 (300 nM or more)

See these solved cases before continuing.
| compound.structure.string | label |
| --- | --- |
| CC(C)Nc1nc(C#N)cc2cnc(N[C@@H]3CCCNC3)cc12 | group 2 |
| N#Cc1cc2cnc(N[C@H]3CC[C@H](N)C3)cc2c(NC2CCCC2)n1 | group 2 |
| N#Cc1cc2cnc(N[C@H]3CCCNC3)cc2c(N[C@H]2CCOC2)n1 | group 3 |
| CC(=O)N[C@H]1CC[C@H](Nc2ncc3cc(C#N)nc(NC(C)C)c3n2)C1 | group 2 |

Problem: Which class does CC(C)Nc1nc(C#N)cc2cnc(N[C@@H]3CN4CCC3CC4)nc12 fall in?
Result: group 3

Problem: Also N#Cc1cc2cnc(N[C@H]3CCCNC3)cc2c(NC2CC2)n1 , if possible.
Result: group 3

Problem: Also CC(C)Nc1nc(C#N)cc2cnc(N[C@H]3C[C@H](N)C3)nc12 , if possible.
Result: group 1

Problem: Also CC(=O)N[C@@H]1CCC[C@H](C(=O)Nc2cc3c(NC(C)C)nc(C#N)cc3cn2)C1 , if possible.
Result: group 2

Problem: Also CC(C)Nc1nc(C#N)cc2cnc(N[C@H]3CCCNC3)nc12 , if possible.
Result: group 1
